assay: yeast display, Sf9 membrane polyspecificity reagent, FACS + sequencing; frameworks hold sequencing errors
readout.name: polyreactivity (PSR sort gate)

These recorded examples may help you get a feel for the data.
QVQLVESGGGLVQAGGSLRLSCAASGITFPRNAMGWYRQAPGKERELVAAISARGGNTYYADSVKGRFTISRDNSKNNVYLQMNSLKPEDTAVYFCNALGSSYSEPSEYDYWGQGTQVTVSS: low polyreactivity
QVQLVESGGGLVQAGGSLRLSCAASGSIFGYYAMGWYRQAPGKERELVARISYSGGTTYYADSVKGRFTISRDNAKNTVYLQMNSLKPEDTAVYYCNARIPYSWRYGYWGQGTQVTVSS: high polyreactivity
QVQLVESGGGLVQAGGSLRLSCAASGITFGYYAMGWYRQAPGKERELVAAINWSGGSTYYADSVKGRFTISRDNAKNTVYLQMNSLKPEDTAVYYCNARPFNRYYREYDYWGQGTQVTVSS: high polyreactivity
QVQLVDSGGGLVQAGGSLRLSCAASGFNFDRNTMGWYRKAPGKERELVATISSTGTTNYADSVKGRFTISRDNAKNTVYLQMNSLKPEDTAVYYCNAYPRWRYVSYYRSYRYDYWGQGTQVTVSS: high polyreactivity
QVQLVESGGGLVQAGGSLRLRCAASGFTFGYNAMGWYRQAPGKERELVAAIYFSDGITYYADSVKGRFTISRDNAKNTVYLQMNSLKPEDTAVYYCAADLYFEYEYWGQGTQVTVSS: high polyreactivity
QVQLQESGGGPVLAGGSLRLSCAASGTIFVRLDMGWYRQAPGKEREFVATIGSGSSTYYADSVKGSFTISRDNVKNPVYLQMNSLKPEDTAVYYCAVSAAEQSRHYYWDQGTQVTVSS: low polyreactivity
QVQLVESGGGLVQAGGSLRLSCAASGRIFRFYAMGWYRQAPGKERELVAAISSRGGSTYDADSVKGRFTISRDNAKNTVYLQMNSLKPEDTAVYYCNAYGSTSQMDYWGQGTQVTVSS: high polyreactivity
QVQLVESGGGLVQAGGSLRLSCAASGGIFHGYVMGWYRQEPGKERELVASIRTRGVRTYYADSVKGRFTISRDNAKNTVYLQMNSLKPEDTAVYYCNARGQVYSTLSSYRYDYWGQGTQVTVSS: high polyreactivity
QVQLVESGGGLVQAGGSLRLSCAAYGSTFGHYAMGWDRQAPGKERELVAAISSSGGSTYYADSVKGRFTISRDNAKNTVYLQMNSLKPEDTAVYYCAARYYHYSYAFGYWGQGTQVTVSS: high polyreactivity

Continue with the next sequence.
Given QVQLVESGGGLVQAGGSLRLSCAASGSIFPYNAMGWYRQAPGKEREFVAAITYSGGSTYYADSVKGRFTISRDNAKNTVYLQMNSLKPEDTAVYYCAAGYSSRGSRDGYWGQGTQVTVSS , state its recorded polyreactivity (PSR sort gate). low polyreactivity

====

assay: yeast display, Sf9 membrane polyspecificity reagent, FACS + sequencing; frameworks hold sequencing errors
readout.name: polyreactivity (PSR sort gate)

These recorded examples may help you get a feel for the data.
QVQLVESGGGLVQAGGSLRLSCAASGSILCLNAMGWYRQAPGKERELVADITRGGSTYYADSVKGRFTISRDNAKNTVYLQMNSLKPEDTAVNYCAADAYTGQIPYYYFEHYYWGQGTQVTVSS: high polyreactivity
QDQLVESGGGLVQAGGSLRLSCAASGIIFDVYAMGWYRPAPWNERELVAGITIGDITYYADSVKGRFTISRDNAKNTVYLQMNSLKPEDTAVYYCAADSYYYQTAYDYWGQGTQVTVSS: low polyreactivity
QFQLVESGGGLVQAGGSLRLSCAASGFIIKFYAMGLYRQAPGKERELVATITFSSGTTYYADSVKGRFTISRDTAKNTVYLQLNSLKPEDTAVYYCAAERGVDDSARNGDYDYWGQGTQVTVSS: low polyreactivity
QVQLVESGGGLVQAGGSLRLSCAASGFIFWDNTMGWYRQAPGKERELVAAISGGDGTYYADSVKGRFTISRDNAKNTVYLQLNSLKPEDTAVYYCNAATAEVKLYGKYDYWGQGTQVTVSS: low polyreactivity
QVQLVESGGGLVQAGGSLRLSCAASGSIFGRYAMGWYRQAPGKERELVASINWNSGSTYYADSVKGRFTISRDNAKNTVYLQMNSLKPEDTAVYYCAAAALGYYGYWGQGTQVTVSS: low polyreactivity

Your task in this section: give polyreactivity (PSR sort gate) for each listed record.
1. QVQLVESGGGIVQAGGSLRLSCAATGRTFGYNAMGWYRQAPGKERELVAAIRTIGDSTYYADSVKGRFTISRDNAKNTVYLQMNSLKPEDTAVYYCAARKLRSRYDYWGQGTQVTVSS
2. QVQLVESGGGLVQAGGSLRLSCAASGRTLAKNAMGWYRQAPGKERELVAAISRRGGSTYYADSVKGRFTISRDNAKNTVYLQMNSLKPEDTAVYYCARASRQGYYQLSYDEFDYWGQGTQVTVSS
3. QVQLVESGGGLVQAGGSLRLSCAASGSIFLYNTKGWYRQAPGKERELVAAISFSGVTTYYADSVKGRFTISRDNAKNTVYLQMNSLKPEDTAVYYCNKYLWKFTNSPLGDYYWGQGTQVTVSS
4. QVQLVESGGGLVQAGGSLRLSCAASGRIFMPYAMGWYRQARGKERELFAAITSTGGSTYYADSVKGRFTISRDNAKNTVYIQMNSQKPEDTAVYYCNARRGYQPHRRDYWGQGTQVTLSS
5. QVQLVESGGGLVQAGGSLRLSCAASGSIFTHYAMGWYRQAPGKERELVAGITSSGGSTYADSVKGRFTISRDNAKNTVYLQMNSLKPEDTAVYYCNADNATYFVYEFNYWGQGTQVTVSS
6. QVQLVESGGGLVQAGGSLRLSCAASGFTFGNYAMGWYRQAPGKERELVAVISYSTGSTYYADSVKGRFTISRDNAKNTVYLQMNSLKPEDTAVYYCAKRYRSYYQGYGYWGQGTQVTVSS

1. high polyreactivity
2. high polyreactivity
3. high polyreactivity
4. low polyreactivity
5. low polyreactivity
6. high polyreactivity

Your task in this section: give polyreactivity (PSR sort gate) for each listed record.
1. QVQLVESGGGLVQAGGSLRLSCAASGSTFDANAMGWYRQEPGKERELVATISDGGSTNYADSVKGRFTISRDNAKNTVYLQMNSLKPEDTAVYYCAADFSPWGGWYMSLDYWGQGTQVTVSS
2. QVQLVESGGGLVQAGGSLRLSCAASGRIFYGNAMGWYRQAPGKERELVAAITRSGGSTYYADSVKGRFTISRDNAKNTVYLQMKSLKPEDTAVYYCAKYRPGIPYYQYGSWGQGNQVTVSS

1. low polyreactivity
2. high polyreactivity

====

experiment: yeast display, Sf9 membrane polyspecificity reagent, FACS + sequencing; frameworks hold sequencing errors
readout.name: polyreactivity (PSR sort gate)

These recorded examples may help you get a feel for the data.
QVQLVESGGGLVQAGGSLRLICAASGRIFGYYAMGWYRQAPGKERELVAAIDGSDGTTYYADSVKGRFTISRDNAKNTVYFHMNSLKPEDTAVYYCAKDNSLPDYDYWGQGTQVTVSS: low polyreactivity
QVQLVESGGGLVQAGGSLRLSCAASGRTFRFTAMGWYRQAPGKERELVAAISFRGGSTYYADSVKGRFTISRDNAKNTVYLQMNSLKPEDTAVYYCAARARTGTYRDMYYWGQGTQVTVSS: high polyreactivity
QVQLVESGGGLVQAGGSLRLSSAASGFTFRYYAMGWYRQAPGKERELVAAISWSGGRTYYADSVKGRFTISRDNAKYTVYLQMNILKPEDTAVYYCAADGYPYFYGDFDYSGQGTQVTVSS: high polyreactivity
QVQLVESGGGLVQAGGSLRLSCAASGRTFARYTMGWYRQAPGKERELVASITRGGSTYYADSVKGRFTISRDNAKNTVYVQMNSLKPEDTAVYYCAARFPQHNYWAMDYWGQGTQVTVSS: high polyreactivity
QVQLVESGGGLVQAGGSLRLSCAASGSTFVRNAMGWYRQAPGKERELVAGISTGDNTYYADSVKGRFTISRDNAKNTVYLQMNSLKPEDTAVDYCNATKDFSFGLDYWGQGTQVTVSS: low polyreactivity
QVQLVESGGGLVQAGGSLRLSCAASGSIFRSYALGGYRQAPGKERELVASISRRGGSTYYADSVKGRFTISRDNAKNTVYLQMNSLKPQDTAVYYCAAVRYNSRGSTTPSEMYYWGQGTQVTVSS: low polyreactivity

Continue with the next sequence.
Given QVQLVESGGGLVQAGGSLRLSCAASGSIFRGYTMGWYRQAPGKERELVAAITSGDSTNYADSVKGRFTISRDNAKNTVYLQMNSLKPEDTAVYYCAAGRLYLPYLVYRTYSFVGYYYWGQGTQVTVSS , state its recorded polyreactivity (PSR sort gate). high polyreactivity

====

assay: yeast display, Sf9 membrane polyspecificity reagent, FACS + sequencing; frameworks hold sequencing errors
readout.name: polyreactivity (PSR sort gate)

These recorded examples may help you get a feel for the data.
QVQLVESGGGLVQAGGSLRLSCAASGSIFGLYAMGWYRQAPGKERELVAAISSRGSSTYYADSVKGRFTISRDNAKNTVYIQMNSLKPEDTAVYYCNAYPFSRSVQLRDYWGQGTQVTVSS: low polyreactivity
QVQLVESGGGLVQAGGSLRLSCAASGSIFFWYTMGWYRQAPGKERDLVATITGSGSSTTYADSVKGRFTISRDNAKNTVYLQMNSLKPEDTAVYSCAAADIIDHSFPYDYWGQGTQVTVSS: low polyreactivity
QVQLVESGGGLVQAGGSLRLSCAASGSNFRTYPIGWYRQAPGKERELVAAISSNGGSTYYADSVKGRFTISRDNAKNTVYLQMNSLKPEDTAVYYCANDQTGYWYNRYGYWGQGTQVTVSS: low polyreactivity
QVQLVESGGGLVQAGGSLRLSCAASGSTFESYAMGWYRQAPGKERELVAAISQNGGSTYYADSVKGRFTISRDNAKNTVYLQMNSLKPEDTAVYYCNADVYPYYRKPWMDYWGQGPQVTVSS: low polyreactivity

Given QVQLVESGGGLVQAGGSLRLSCAASGSNFDDYGMGWYRQAPGKEREFVATITFGGGTYADSVKGRFTISRDNAKNTVYLQMTSLKPEDTAVYYCAKDWWTYRSSRPSDGTPARDDYWGQGTQVTVSS , state its recorded polyreactivity (PSR sort gate). low polyreactivity
